- Tested on: Fibroblast
- assay_text: Multiplex assay against human fibroblast
- Assay type: toxicity, cell-based
- measurement_context: 12 h, 1 µM, compound concentration 1 uM, replicate 2
Threshold check on Population Mitotic Cells (%): strictly below 60% is true; on or above 60% is false.

molecule: CCCCC[C@H](O)/C=C/[C@H]1[C@H](O)CC(=O)[C@@H]1CCCCCCC(=O)O
assigned_class: true
--
molecule: OCCCNc1cc(-c2ccnc(Nc3cccc(Cl)c3)n2)ccn1
assigned_class: true
--
molecule: CC(C)(C)c1ccc(CSc2cnn(C(C)(C)C)c(=O)c2Cl)cc1
assigned_class: true
--
molecule: Cc1cc(=O)n(C)c2cc(N3C(=O)CC[C@H](NS(=O)(=O)CC(C)C)[C@H]3c3ccc(Cl)cc3)ccc12
assigned_class: false
--
molecule: CN1CCN(c2ccc(Nc3c4ccccc4nc4ccccc34)cc2)CC1.Cl.Cl.O
assigned_class: true

*Q* # strict comparison: is reported Population Mitotic Cells (%) < 60%? input = S=C(NCCCc1c[nH]cn1)NCCCN(Cc1ccc(Cl)c(Cl)c1)c1ccc(Br)cn1
*A* false

*Q* Also COc1cc(Nc2ncc3c(n2)-c2ccc(Cl)cc2C(c2c(F)cccc2OC)=NC3)ccc1C(=O)O ?
*A* true

*Q* Quick one: O=C(O)CCC/C=C\CC1C(O)CC(O)C1/C=C/C(O)COc1cccc(Cl)c1 (configuration not stated)
*A* false

*Q* Same lookup for C[C@H](NC(=O)CNC(=O)c1cccc(Cl)c1)c1ccccc1 , please.
*A* true

*Q* Now the same for CC(C)C[C@H](CO)Nc1nc(S[C@@H](C)c2ccccc2)nc2nc(N)sc12
*A* false

*Q* Could you do the same for COCCCN1CCC(NC(=O)c2cc(Cl)c(N)c3c2OCC3)CC1 [PRUCALOPRIDE] , please?
*A* true

*Q* Also need Cc1cc(O)c(-c2ccc([C@@H](C)CN(C)C)cc2)c2c1[nH]c(=O)c1sccc12 , thanks.
*A* true

*Q* Next molecule: COC(c1ccccc1)(c1ccccc1)[C@H](Oc1nc(C)cc(C)n1)C(=O)O
*A* false

*Q* Consider next the molecule COc1cc2nc(N3CCN(C(=O)COc4c(OC)cccc4C(C)C)CC3)nc(N)c2cc1OC.Cl.Cl in the same way.
*A* false

*Q* Could you do the same for Cn1cc(C(=O)OCC2CCN(CCNS(C)(=O)=O)CC2)c2ccccc21 , please?
*A* false
